Hey, just so you know, these numbers are from ChEMBL document CHEMBL1201862.

System: CCRF-CEM
Assay: NCI tumour cell line growth inhibition, 48 h
Calls of active or inactive are those of the source. No stated cut-off is given here; in the data, active = GI50 up to about 1.1 µM and inactive = higher.
Give your call using only these classes: active, inactive

Inquiry: Recorded test call requested for "Cc1cccc(-c2nc3c(C(=O)NCCN(C)C)cccc3[nH]2)c1"
Reply text: active

Inquiry: Recorded test call requested for "O=C1C2=C(SCCS2)C(=O)c2c(Sc3ccc(Cl)cc3)c(Sc3ccc(Cl)cc3)c(Sc3ccc(Cl)cc3)c(Sc3ccc(Cl)cc3)c21"
Reply text: inactive

Inquiry: Recorded test call requested for CC(=O)OC/C=C(\C)CCC(Br)C(C)(C)Br (stereo unspecified)
Reply text: inactive

Inquiry: Recorded test call requested for "C=C(C)[C@H]1C=C[C@@H](OC(=O)c2cccnc2)[C@@]23CO[C@@](C)([C@H](OC(=O)c4cccnc4)[C@@]4(OC(C)=O)C[C@H](C)[C@H](OCCC)[C@@H]4[C@H]2OC(C)=O)[C@H]13"
Reply text: inactive

Inquiry: Recorded test call requested for "O=C(CC(O)(C(F)(F)Cl)C(F)(F)Cl)CC(O)(C(F)(F)Cl)C(F)(F)Cl"
Reply text: inactive

Inquiry: Recorded test call requested for "Nc1n[nH]c2c1Cc1c(n(Cc3ccc(Cl)cc3)c3ccccc13)C(=O)N2"
Reply text: inactive

Inquiry: Recorded test call requested for Fc1cccc(C2SCc3nc4ccccc4n32)c1 (stereo unspecified)
Reply text: inactive

Inquiry: Recorded test call requested for "Cc1ccc(NC(=O)c2cccc(OP(=O)(O)Nc3ccc(C)cc3)c2)cc1"
Reply text: inactive

Inquiry: Recorded test call requested for "NNC(=O)c1cc(=O)[nH][nH]1"
Reply text: inactive

Inquiry: Recorded test call requested for "CCOC(=O)c1sc2c(C(=O)OCC)n3ccccc3c2c1N"
Reply text: inactive

Inquiry: Recorded test call requested for "CCCCC(=O)OC[n+]1ccc2c(C)c3[nH]c4ccc(OC)cc4c3c(C)c2c1"
Reply text: active

Inquiry: Recorded test call requested for "CNc1ccc([N+](=O)[O-])c2c(NCCCN(C)C)ccnc12"
Reply text: inactive

Inquiry: Recorded test call requested for "Clc1cccc(/C=N/C23CC4CC(CC(C4)C2)C3)c1Cl"
Reply text: inactive

Inquiry: Recorded test call requested for "Clc1cc(N/N=C(\c2ccccc2)c2ccccn2)ncn1"
Reply text: active

Inquiry: Recorded test call requested for "c1cnc2c3[nH]cc4[nH]c5ccccc5c4c-3nc2c1"
Reply text: inactive

Inquiry: Recorded test call requested for O=C1OC(CN2CCOCC2)CN1/N=C/c1ccc([N+](=O)[O-])o1 (stereo unspecified)
Reply text: inactive
